system: Plasmodium falciparum; experiment: NOVARTIS: Inhibition of Plasmodium falciparum W2 (drug-resistant) proliferation in erythrocyte-based infection assay; type: functional, organism-based; conditions: Plasmodium falciparum, W2; read-out: EC50
Each entry below carries its recorded log10 of EC50.
Record value = log10 of EC50 given in nM.

Can you look up the measured log10 of EC50 of "O=[N+]([O-])c1ccc2nc(NC3CCCCC3)c(NC3CCCCC3)nc2c1" for me?
3.42

Again, but for CC1CCCCN1CCCNc1ncc(C(=O)NCC2CCCO2)c(NCCc2ccccc2)n1 (stereo unspecified)
1.43

###

Each entry below carries its recorded pEC50.
system: Plasmodium falciparum; experiment: NOVARTIS: Inhibition of Plasmodium falciparum W2 (drug-resistant) proliferation in erythrocyte-based infection assay; type: functional, organism-based; details: Plasmodium falciparum, W2; read-out: EC50
Give only the number. pEC50 is defined as minus log10 of concentration in molar units.

{"columns": ["Compound", "System Name", "Property", "Assay Value"],
 "data": [
  ["COC(=O)c1c(-c2c(Cl)cccc2Cl)noc1NC(=O)NN1CCCCC1", "Plasmodium falciparum", "pEC50", 6.82],
  ["CCN(CC)CCCC(C)Nc1cc(/C=C/c2ccccc2Cl)nc2cc(Cl)ccc12 (stereo unspecified) [AMINOQUINOL]", "Plasmodium falciparum", "pEC50", 6.55],
  ["N#CC(=Cn1cc(Cc2ccc(Cl)cc2Cl)c2ccccc21)c1nn(CCO)c(N)c1C#N", "Plasmodium falciparum", "pEC50", 6.04],
  ["COC(=O)C1=CNC=C(C(=O)OC)C1c1cc(Br)ccc1OC", "Plasmodium falciparum", "pEC50", 5.34],
  ["COc1ccc(/C=C2\\SC(=Nc3ccccc3OC)NC2=O)cc1", "Plasmodium falciparum", "pEC50", 6.97]
]}

Can you look up the measured pEC50 of "CC[n+]1cc(C)ccc1C=Cc1ccc(N(C)C)cc1" for me?
6.41

Again, but for "CN(C)c1ccc(C=C2SC(=N)N(c3nccs3)C2=O)cc1"
5.74

Again, but for "Nc1c(Cl)c(Cl)nc(C(Cl)(Cl)Cl)c1Cl"
6.54

Again, but for "CC(C)[C@@]1(NC(=O)[C@@H]2C[C@@H]3c4cccc5[nH]cc(c45)C[C@H]3N(C)C2)O[C@@]2(O)[C@@H]3CCCN3C(=O)[C@H](CC3CCCCC3)N2C1=O"
6.11

Again, but for "O=[N+]([O-])c1ccc(N2CCCN(C(=S)Nc3ccc(F)cc3Br)CC2)nc1"
7.04

Again, but for "C[n+]1c2n(c3ccccc31)N=C(c1ccccc1)C[Se]2"
6.08
